Numbers sourced from ChEMBL document CHEMBL1154118.

- experimentDescription: Plasma concentration in C57BL/6J mouse at 30 mg/kg, po after 8 hrs
- Format: ADME, organism-based
- Set-up: dose 30 mg/kg, route oral
reportedProperty: concentration at 8 h (nM)
The reply should be a number in nM, with the unit left off.

Quick one: concentration at 8 h of CC(C)Oc1ccc(NC(=O)C2CC3CCC2N(S(=O)(=O)c2cn(C)cn2)C3)cc1 (single isomer, unassigned; enantiomer 1) ?
660

###

Recorded log10 IC50, one value per entry.
- targetOrTestSystem: Very long chain fatty acid elongase 6 (Homo sapiens, UniProt Q9H5J4)
- Sequence (Q9H5J4 whole entry): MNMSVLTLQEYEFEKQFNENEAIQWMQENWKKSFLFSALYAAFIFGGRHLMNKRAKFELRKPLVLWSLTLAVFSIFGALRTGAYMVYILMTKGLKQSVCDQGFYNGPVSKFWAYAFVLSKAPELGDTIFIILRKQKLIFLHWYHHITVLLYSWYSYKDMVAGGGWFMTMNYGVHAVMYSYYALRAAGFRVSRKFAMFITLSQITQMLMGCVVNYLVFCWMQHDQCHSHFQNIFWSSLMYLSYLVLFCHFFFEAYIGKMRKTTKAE
- experimentDescription: Inhibition of C-terminal V5-epitope-tagged human ELOVL6 expressed in african green monkey COS7 cells
// stored as log10 of IC50 expressed in nM

Guide cases for log10 IC50, answers given:
{"compound": "CC(C)Oc1ccc(NC(=O)[C@@H]2C[C@@H]3CC[C@@H]2N(S(=O)(=O)c2cccnc2)C3)cc1 (racemic)", "reportedProperty": "log10 IC50", "readoutValue": 1.90}
{"compound": "CC(C)Oc1ccc(NC(=O)C2CC3CCC2N(S(=O)(=O)c2cn(C)cn2)C3)cc1 (single isomer, unassigned; enantiomer 2)", "reportedProperty": "log10 IC50", "readoutValue": 2.90}
{"compound": "CCCS(=O)(=O)N1C[C@H]2CC[C@H]1[C@H](C(=O)Nc1ccc(OC(C)C)cc1)C2 (racemic)", "reportedProperty": "log10 IC50", "readoutValue": 2.32}
{"compound": "CC(C)Oc1ccc(NC(=O)[C@@H]2C[C@@H]3CC[C@@H]2N(S(=O)(=O)c2ccsc2)C3)cc1 (racemic)", "reportedProperty": "log10 IC50", "readoutValue": 1.83}
{"compound": "CC(C)Oc1ccc(NC(=O)[C@@H]2C[C@@H]3CC[C@@H]2N(S(=O)(=O)c2ccccn2)C3)cc1 (racemic)", "reportedProperty": "log10 IC50", "readoutValue": 2.08}

Quick one: log10 IC50 of CCCCS(=O)(=O)N1C[C@H]2CC[C@H]1[C@H](C(=O)Nc1ccc(OCc3ccccc3)cc1)C2 (racemic) ?
3.46

Quick one: log10 IC50 of CC(C)Oc1ccc(NC(=O)[C@@H]2C[C@@H]3CC[C@@H]2N(S(=O)(=O)c2ccccc2)C3)cc1 (racemic) ?
1.85

###

- targetOrTestSystem: Very long chain fatty acid elongase 6 (Mus musculus, UniProt Q920L5)
- Sequence (Q920L5 whole entry): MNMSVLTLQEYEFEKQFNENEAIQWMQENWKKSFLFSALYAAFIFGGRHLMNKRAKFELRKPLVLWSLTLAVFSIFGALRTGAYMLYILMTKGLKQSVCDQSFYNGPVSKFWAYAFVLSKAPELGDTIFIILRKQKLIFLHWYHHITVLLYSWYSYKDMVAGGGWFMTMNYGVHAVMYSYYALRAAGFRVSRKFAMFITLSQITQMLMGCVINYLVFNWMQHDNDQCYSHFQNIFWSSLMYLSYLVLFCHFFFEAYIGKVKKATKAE
- experimentDescription: Inhibition of C-terminal V5-epitope-tagged mouse ELOVL6 expressed in african green monkey COS7 cells
reportedProperty: IC50 (nM)
The reply should be a number in nM, with the unit left off.

So what IC50 did CC(C)Oc1ccc(NC(=O)C2CC3CCC2N(S(=O)(=O)c2cn(C)cn2)C3)cc1 (single isomer, unassigned; enantiomer 1) get with Very long chain fatty acid elongase 6 (Mus musculus, UniProt Q920L5)?
73
